assay: Cmax in C57BL/6 mouse serum at 50 mg/kg, ip administered as single dose measured up to 360 mins by UPLC-MS analysis; type: ADME, organism-based; parameters: dose 50 mg/kg, route intraperitoneal
outcome.measure: Cmax (ng/mL)
Enter your answer as a number in ng/mL; do not include the unit.

IN: For the compound shown here, `Cl.Cn1cccc1C(=O)N[C@@H](CCn1ccnc1)C(=O)NCc1ccccc1` , give the reported Cmax.
OUT: 12000

====

test: Half life in C57BL/6 mouse serum at 50 mg/kg, ip administered as single dose by UPLC-MS analysis; assay type: ADME, organism-based
outcome.measure: half-life (min)
Express the result in min but write the number alone.

IN: Give its half-life value. Item: `Cl.Cn1cccc1C(=O)N[C@@H](CCn1ccnc1)C(=O)NCc1ccccc1`
OUT: 34.8
